Every entry's value here was drawn from patent US20170233413A1.

target: recombinant guanylate cyclase reporter cell line (Rattus norvegicus, UniProt P19686+P20595); construct: expressed in transfected cells; assay: Effect on a recombinant guanylate cyclase reporter cell line; type: cell-based; conditions: MEC = minimum effective concentration; in some cases means of individual determinations
Sequence (P19686 whole entry): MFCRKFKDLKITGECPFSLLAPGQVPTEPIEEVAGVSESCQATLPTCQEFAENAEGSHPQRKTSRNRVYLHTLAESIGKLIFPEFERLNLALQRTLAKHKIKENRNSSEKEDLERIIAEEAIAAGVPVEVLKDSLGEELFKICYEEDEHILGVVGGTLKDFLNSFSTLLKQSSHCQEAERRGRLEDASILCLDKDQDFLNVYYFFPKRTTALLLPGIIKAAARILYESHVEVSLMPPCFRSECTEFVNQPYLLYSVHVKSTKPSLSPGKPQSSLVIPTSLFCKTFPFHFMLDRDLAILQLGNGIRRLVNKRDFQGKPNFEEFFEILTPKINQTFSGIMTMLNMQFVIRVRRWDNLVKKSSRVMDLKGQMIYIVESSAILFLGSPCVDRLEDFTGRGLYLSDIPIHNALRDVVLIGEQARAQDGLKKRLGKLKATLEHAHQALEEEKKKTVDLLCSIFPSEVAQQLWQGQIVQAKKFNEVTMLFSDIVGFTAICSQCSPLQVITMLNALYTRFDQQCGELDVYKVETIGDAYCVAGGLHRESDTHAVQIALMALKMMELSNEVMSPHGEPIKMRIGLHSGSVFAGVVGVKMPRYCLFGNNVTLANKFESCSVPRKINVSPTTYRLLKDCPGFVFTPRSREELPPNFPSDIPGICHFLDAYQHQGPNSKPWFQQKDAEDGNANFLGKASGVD
Sequence (P20595 whole entry): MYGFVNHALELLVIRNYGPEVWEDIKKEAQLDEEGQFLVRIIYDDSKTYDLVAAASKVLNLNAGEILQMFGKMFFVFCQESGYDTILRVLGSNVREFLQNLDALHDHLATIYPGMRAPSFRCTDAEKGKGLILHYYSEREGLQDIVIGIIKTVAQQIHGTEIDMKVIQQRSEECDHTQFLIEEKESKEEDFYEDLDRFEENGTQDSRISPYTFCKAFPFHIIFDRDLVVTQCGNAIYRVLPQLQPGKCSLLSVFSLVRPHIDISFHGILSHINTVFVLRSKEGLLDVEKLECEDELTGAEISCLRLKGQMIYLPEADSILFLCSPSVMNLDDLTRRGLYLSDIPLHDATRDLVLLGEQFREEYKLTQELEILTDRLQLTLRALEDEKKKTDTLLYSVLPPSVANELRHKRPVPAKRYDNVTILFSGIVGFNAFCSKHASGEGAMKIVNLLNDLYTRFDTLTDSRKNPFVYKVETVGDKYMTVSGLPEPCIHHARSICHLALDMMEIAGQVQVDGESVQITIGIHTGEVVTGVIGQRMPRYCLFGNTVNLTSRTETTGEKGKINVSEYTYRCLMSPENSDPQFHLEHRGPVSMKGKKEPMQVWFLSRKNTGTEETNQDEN
quantity-measured: MEC (µM)

Take a look at these entries with their results.
Entry Cc1nc2c(cc1F)c(-c1nc3c(c(C(=O)NC4CC4)n1)C(C)(C)C(=O)N3)nn2Cc1cccc(F)c1F , MEC reported as 0.1

Entry CC1(C(F)(F)F)C(=O)Nc2nc(-c3nn(Cc4ncccc4F)c4ncc(F)cc34)nc(C(N)=O)c21 (racemic) [Example 21] , MEC reported as 3

Entry CN(CCC(N)=O)C(=O)c1nc(-c2nn(Cc3ccccc3F)c3ncccc23)nc2c1C(C)(C)C(=O)N2 , MEC reported as 1

Entry C[C@H](NC(=O)c1nc(-c2nn(Cc3ccccc3F)c3ncccc23)nc2c1C(C)(C)C(=O)N2)C(N)=O , MEC reported as 1

Entry CC1(C)C(=O)Nc2nc(-c3nn(Cc4ccccc4F)c4ncccc34)nc(C(=O)NCC3CCOC3)c21 (racemic) , MEC reported as 0.3

Entry CC1(C)C(=O)Nc2nc(-c3nn(Cc4ccccc4F)c4ncccc34)nc(C(=O)Nc3cc(F)c(F)c(F)c3)c21 , MEC reported as 1

[a] CC1(C)C(=O)Nc2nc(-c3nn(Cc4ccccc4F)c4ncccc34)nc(C(=O)Nc3nccs3)c21
[b] CC1(C)C(=O)Nc2nc(-c3nn(Cc4ccccc4F)c4cc(Cl)ccc34)nc(C(N)=O)c21
Which of the two gives a bigger number for MEC: a or b ? Write the label of whichever entry you select.
a

[A] Cc1nnc(NC(=O)c2nc(-c3nn(Cc4ccccc4F)c4ncccc34)nc3c2C(C)(C)C(=O)N3)o1
[B] CC1(C)C(=O)Nc2nc(-c3nn(Cc4ccccc4F)c4ncc(F)cc34)nc(C(=O)NC3(C#N)CC3)c21
For the pair A and B , which entry has the numerically smaller recorded MEC? Write the label of whichever entry you select.
B

[P] CC1(C)C(=O)Nc2nc(-c3nn(Cc4ccccc4F)c4ncccc34)nc(C(=O)Nc3cccnc3)c21
[Q] CC1(C)C(=O)Nc2nc(-c3nn(Cc4ccccc4F)c4ncc(F)cc34)nc(C(N)=O)c21
[R] CC(C)C(C)NC(=O)c1nc(-c2nn(Cc3ccccc3F)c3ncccc23)nc2c1C(C)(C)C(=O)N2 (racemic)
List these items ordered by MEC, big to small. When ranking, write the labels in the order the request describes.
R, P, Q
(R: 1 µM, P: 0.3 µM, Q: 0.03 µM)

[A] CC1(C)C(=O)Nc2nc(-c3nn(Cc4ccccc4F)c4ncccc34)nc(C(=O)Nc3nnc[nH]3)c21
[B] CC1(C)C(=O)Nc2nc(-c3nn(Cc4ccccc4F)c4ncccc34)nc(C(=O)NCC3(O)CC3)c21
For the pair A and B , which entry has the numerically smaller recorded MEC? Write the label of whichever entry you select.
A
